experimental.details: label from the status in PepcDB records
endpoint.label: protein production

Solved cases (5 shown):
MKKLVLTGAAGRLGSYLREPLTALCDTLVSTDIVDDIGTLYAGETYVKADLAQMDQIAPVLEGADMVVHFGAIVDEKPFEELLGPNFVGSYNIWEAGYKAGVKRIVYASSIHAVGMHLKSDFIGIDAEHRPDTFYGLAKCFTEDLGRMYWDKRGLESVHLRILSCAQVNNTRALGSWLSYPDLIQLVTRAIDTPSVGFSIIYGVSNNDRAPVDNAKASFLGYRPIDNAEVYAAEVLAQAEPVDTTDPGQMCHGGPFAKVDLGQSGLAQMNVVNDKKQT | failed
MNLASIIGWGVGFGAILISMAFTPTGLGVFWDLSSVFITVVGSFSALMASSEVVAVKKIPTYLGFFFRRNSYAKVSIIKILVELSEKARKEGLLSLDDELEQINDPFFKSGMRLVVDGADPEVIRTMLYLELDQMQERHKVGSDLFKTWAKLAPAFGMTGTLIGLVALLGNLEDKSALGSSMAVALITTLYGTIMANLMFTPVQLKLEKIDTEEAAVKTMIIEGVLSIQSGDNPRILEQKLMTFLTPKDRSQLNSSIGGE | failed
MEVMRGVRVIEGMNGGRFPYCNVVVVGDVVIDAGAGLEVMRKVNASLLVLSHLHPDHSSGAWLFKDVLAPAEGRITLDTLARRFVAPDLVESWKRFISAATGLREFECERYEEGVVVKEPEIVAVPVKGHTMDHHVFLIEQKVLFGADVDLTSFGPFYGNPEADPYLFEREMDKLLDIDFEIFVSAHSKPVFGKEEAEGRILEFKRKIKEREEIILSLLEEPKSLDELVELSPIYGRKPYAKEILDFFERVMIEKHIEKLEMEGRVRKEDGKYVRV | failed
MLTLDLSAVRCQNGVPFLRYYWNLPVNQSHSGPLANNHAQLGLLFISVAVLFWGMLPIALKLSGSFIDPVTLTWFRFLVALIVSILVQWSAGSLKQFAALDAKVWLRLILAGLFLMLNYVSFVYSLDYLAPGAAQLNFQTSPFFLAFGGVLFFKERLNAIQLSCFASLALGMLMFFHPFLDFSATDNHEIWLGVMIVQFSALSWTTYALLQKSLLNRLSPANVLLVIYALGIFAMAPFSDFSQFAQMNSFDWQVALFCAANTLIAYGCFGQSMKYWPTAQVSAMLALTPVFSFSATALVVSIGWWPEVFRADELDALSLFGIGVIIVSVMVVQLLPLYRQRRARRLQPI | failed
MTKLEQIQQWTAQHHASMTYLSNPKTIEYLTGFGSDPIERVLALVVFPDQDPFIFAPALEVEVIKETGWQFPVIGYLDHENPWAMIADQVKQRHVNPEHVAIEKGQLQVARMEALAAQFSAPSFDLDITSFIEHMR | not failed

Quick note, protein production for MAEDEIVVEEEQSQPQEITPVPPSSSSSPSLVVEDDDEMKLKHLEFIQVAAVYFAACFSTLYELAKDNAGPLKLGVENIEDCVRTVLAPLYEKFHDVPFKLLLFVDRKVDDVFFDVETYVPSLVKQASSQALTVATEVQRTGVVDTTKSIARSVRDKYEPAAEYYAATLWRLLNQLPLFPEVAHLVIPTAFYWSEKYNDAVRYVGDRDYFGAEYLPMIPIEKISDILEQDQCRAD landed at failed

Quick note, protein production for MNVLLGSVVIFATFVTLCNASCYFIPNEGVPGDSTRKCMDLKGNKHPINSEWQTDNCETCTCYETEISCCTLVSTPVGYDKDNCQRIFKKEDCKYIVVEKKDPKKTCSVSEWII landed at not failed

Quick note, protein production for MDAMEFFRQSAGQWRSQRTTHHLAFRRAENGDSSISVEALEKDDPRVIEICTMHEVDPATAIGGAYVSWQGSMEWDRDAEGHSGTTVFALVPDDASGRSGQLLRERGYAEIVPVIGRFELDENNNLNLVTDYETMSAVEQFWFMGPSLRLRASTVTRFGGLSTAAFCAEVRQTEAAADSEPLKADQLYSSLGW landed at failed

Quick note, protein production for MTQLIKSLPGWLKLMLIFPIFFLNGVLLSLIINRFRELFDYIIIATLVTFLLKLTINFLVSKGIGKRLAIFAVITISFALIALGGITLIPLMGNQLGNLSQDIPRWLSGSQEHLANLKNSTLFLTLDNAGVNVDDLFQKAYLTLSKELDRIGQISLKVLTETIGGVVDTLVILVLTIFLLVGGDTFWQGILSWLPSPWEKKIPQYAGEIFRDYFISRLILAAGSSMARLVVFMALGIPYSILFAFSLGLASLIPFAGAVVTLIGTLVLLLKGWVVAVKFFVSAIVIDQITDNGVAPKLMGDKIGLNPVWILISIFIGAEIAGLLGVLLAVPIASVIKKVIDDMRAGKTENEEIDTEEQVEVLPESLA landed at failed

Quick note, protein production for MSAMGAGPDHLFNLRNNFYLGAYQTAINNSEIANLSPENAVERDCLVFRSYIALGSYQLVISEIDESAATPLQAVKLLAMYLSTPQNKESTISSLKEWLADSTIGNNDTLRLIAGIIFMHEEDYNETLKHTHAGGTMDLYALNVQIFIKMHRAEYAEKQLRVMQQIDEDHTLTQLASAWLNLAVGGSKIQEAYLIFEDFSEKYPMTCLILNGKAVCCMQMGNFDEAETLLLEALNKDAKDPETLANLVVCSLHVGKSSSRHLSQLKLSHPEHILVKRVSSAEDNFERAVQLVA landed at failed

Quick note, protein production for MNNFTYEKLHNNLQYLKLNTIEELLDNCLEIAARDSKTTMEVLDYLFEQEKKHREAAAIERRMKSAGFPVKKMLEEFDFEFQSSINKKVIEDLATLRFVHNAENIVLLGPPGVGKSHLAIALGIEAVKAGISVHFTNTGNLIERLKIANREGILEKKIRDLMKFKVLIIDEIGYLPFDDEGAHCLFQLISRRYEKSSTILTSNKSYGEWGEIFKDHVIAAALLDRILHHCTTINIKGESYRLKERKKQGIKTGLIRHNSTEILENLEHHHHHH landed at not failed

These measurements were taken from a protein production outcome set (Wang et al. 2014).
